Sourced from PubChem BioAssay (NCI)

# System: SNB-19 CNS
# EXPERIMENT DESCRIPTION: NCI tumour cell line growth inhibition, 48 h

- MOLECULE: "O=C(O)CCC1(Br)CCCCC(Br)C1=O (stereo unspecified)"
  TGI: "> 100 µM"
- MOLECULE: "CC(=O)NCCc1c[nH]c2ccc(Cl)cc12"
  TGI: "> 100 µM"
- MOLECULE: "Cc1ccccc1N=Nc1c(O)[nH]c2ccccc12"
  TGI: "> 100 µM"
- MOLECULE: "CCOc1ccc(N=Nc2ccc3oc(=O)c(C(=O)Nc4ccc(OC)cc4)cc3c2)cc1"
  TGI: "46.6 µM"
- MOLECULE: "COc1ccc(/C=N/NC(=O)NCCCN(C)C)cc1"
  TGI: "> 100 µM"
- MOLECULE: "CCOc1ccc(/C=C/[N+](=O)[O-])cc1"
  TGI: "22 µM"

---

compounds and their reported TGI
# Tested on: A549 NSCLC
# EXPERIMENT DESCRIPTION: NCI tumour cell line growth inhibition, 48 h
EXPERIMENTAL ENDPOINT: TGI

- COMPOUND: "CCOc1ccc(N=Nc2ccc3oc(=O)c(C(=O)Nc4ccc(OC)cc4)cc3c2)cc1"
  RESULT: "> 100 µM"
- COMPOUND: "COc1ccc(N[C@H](CS(=O)c2ccc(C)cc2)C(F)(F)C(F)(F)F)cc1 (stereo not given in full)"
  RESULT: "> 100 µM"
- COMPOUND: "O=C(O)C1c2ccccc2C(C(=O)O)c2ccccc21 (stereo not given)"
  RESULT: "> 100 µM"
- COMPOUND: "COc1ccc(-c2nn(-c3cccc(NC(=O)Nc4cc(C(F)(F)F)cc(C(F)(F)F)c4)c3)cc2-c2ccncc2)cc1Cl"
  RESULT: "7.6 µM"
- COMPOUND: "CC(=O)OC1C(CCl)OC(N=[N+]=[N-])C(OC(C)=O)C1OC(C)=O (stereo not given)"
  RESULT: "> 100 µM"

---

Measured TGI by item
# Tested on: MDA-MB-435
# EXPERIMENT DESCRIPTION: NCI tumour cell line growth inhibition, 48 h

- COMPOUND: "c1ccc(-c2nn(-c3ccccc3)[n+](-c3cccc4ccccc34)n2)cc1"
  SIGN: "="
  TGI, µM: 2.67
- COMPOUND: "Cc1ccc2[nH]c3[nH]c(=O)[nH]c(=O)c3c2c1"
  SIGN: ">"
  TGI, µM: 100
- COMPOUND: "CC(C)[Si](OC1=C(C(=O)N(C)c2ccccc2Cl)CCC1)(C(C)C)C(C)C"
  SIGN: "="
  TGI, µM: 42.7
- COMPOUND: "COC(=O)C(Cc1ccccc1I)C1=CCC2(CC1)OCCO2 (stereo unspecified)"
  SIGN: "="
  TGI, µM: 44.8
- COMPOUND: "CC1OC(OC2C(O)COC(OC3C(C)OC(OC4C(OC(=O)[C@]56CCC(C)(C)C[C@@H]5C5=CCC7[C@@]8(C)C[C@H](O)[C@H](OC9OC(CO)C(O)C(OC%10OC(CO)C(O)C(O)C%10O)C9O)[C@@](C)(CO)[C@@H]8CC[C@@]7(C)[C@]5(C)CC6)OCC(O)C4O)C(O)C3OC3OCC(O)C(O)C3O)C2O)C(O)C(O)C1O (stereo partly specified)"
  SIGN: "="
  TGI, µM: 7.72
- COMPOUND: "CC(=O)OC(C)(C)N=Nc1ccc(Br)cc1"
  SIGN: ">"
  TGI, µM: 100
- COMPOUND: "Cc1nc2ccccc2c(=O)n1NC(=O)c1ccccc1O"
  SIGN: ">"
  TGI, µM: 100
- COMPOUND: "C[C@@H](NC(=O)OC1C=CC2(CC1)C(=O)N(C)c1ccccc12)c1cccc2ccccc12 (stereo partly specified)"
  SIGN: ">"
  TGI, µM: 25
- COMPOUND: "CCOC(=O)C1=C(C)NC(=O)NC1c1coc2cc(C)cc(C)c2c1=O (stereo unspecified)"
  SIGN: "="
  TGI, µM: 45.4
- COMPOUND: "COc1cc2c(cc1OC)C1(c3ccccc3)CN(C2)Cc2cc(OC)c(OC)cc21"
  SIGN: "="
  TGI, µM: 54.8
- COMPOUND: "COc1ccc(C2=C(c3cc(OC)c(OC)c(OC)c3)C(=O)CC2)cc1"
  SIGN: "="
  TGI, µM: 0.12
- COMPOUND: "O=C(NNC(=O)c1ccncc1)c1ccncc1"
  SIGN: ">"
  TGI, µM: 100
- COMPOUND: "C[C@]12C=CC(=O)C=C1CC[C@@H]1[C@@H]2C(=O)C[C@@]2(C)[C@H]1CC[C@]2(O)C(=O)CO"
  SIGN: ">"
  TGI, µM: 100
- COMPOUND: "Cc1ccc(-n2c(Cn3nnc(-c4cccnc4)n3)nn(C3OC(COC(=O)c4ccccc4)C(OC(=O)c4ccccc4)C3OC(=O)c3ccccc3)c2=S)cc1 (stereo unspecified)"
  SIGN: ">"
  TGI, µM: 100
- COMPOUND: "Cc1c(CCCl)c(N=[N+]=[N-])n2c(nc3ccccc32)c1C#N"
  SIGN: "="
  TGI, µM: 2.73
- COMPOUND: "CC1C/C(=N\\N(C)C)C(C#N)(C#N)C1(C#N)C#N (stereo unspecified)"
  SIGN: "="
  TGI, µM: 37.4
- COMPOUND: "COc1cc(C(N)=O)cc(NC(=O)/C=C/c2ccccc2)c1OC"
  SIGN: ">"
  TGI, µM: 100
- COMPOUND: "CCN(CC)CCCC(Nc1c2ccc(Cl)cc2nc2ccc(OC)cc12)c1ccc(F)cc1 (stereo unspecified)"
  SIGN: "="
  TGI, µM: 3.2
- COMPOUND: "CC1(C)C(=S)C(C)(C)C1=S"
  SIGN: ">"
  TGI, µM: 100
- COMPOUND: "N#Cc1c(-c2ccccc2)cc(-c2ccccc2)n(CCCCC(=O)NO)c1=O"
  SIGN: "="
  TGI, µM: 11.5
